// protein stability index lookup, one value per entry
B1: CROP (parent)
chain: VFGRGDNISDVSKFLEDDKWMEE

variants of: B1; experiment: protein stability index of a GFP-peptide fusion (GPS, HEK-293T) (PSI 1-6); higher = more stable; details: c terminus: native;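 note: lentivirally expressed fusions sorted by FACS into six bins by GFP to DsRed ratio, PSI derived from sequencing read proportions per bin multiplied by bin number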
Assay readout: protein stability index

[[record]]
sequence_variant = "E23D"
assay_readout = "protein stability index"
numeric_readout = 5

[[record]]
sequence_variant = "L15W"
assay_readout = "protein stability index"
numeric_readout = 2.1

[[record]]
sequence_variant = "W20Y"
assay_readout = "protein stability index"
numeric_readout = 3.39

[[record]]
sequence_variant = "D18Q"
assay_readout = "protein stability index"
numeric_readout = 2.98

[[record]]
sequence_variant = "K13G"
assay_readout = "protein stability index"
numeric_readout = 2.02

[[record]]
sequence_variant = "R4N"
assay_readout = "protein stability index"
numeric_readout = 2.1

[[record]]
sequence_variant = "N7I"
assay_readout = "protein stability index"
numeric_readout = 2.21

[[record]]
sequence_variant = "L15H"
assay_readout = "protein stability index"
numeric_readout = 3.35

[[record]]
sequence_variant = "K13H"
assay_readout = "protein stability index"
numeric_readout = 1.71

[[record]]
sequence_variant = "K19D"
assay_readout = "protein stability index"
numeric_readout = 2.63

[[record]]
sequence_variant = "K13D"
assay_readout = "protein stability index"
numeric_readout = 2.83

[[record]]
sequence_variant = "G5P"
assay_readout = "protein stability index"
numeric_readout = 2.54

[[record]]
sequence_variant = "F14Q"
assay_readout = "protein stability index"
numeric_readout = 3.34

[[record]]
sequence_variant = "W20Q"
assay_readout = "protein stability index"
numeric_readout = 3.4

[[record]]
sequence_variant = "I8C"
assay_readout = "protein stability index"
numeric_readout = 2.81

[[record]]
sequence_variant = "S12Q"
assay_readout = "protein stability index"
numeric_readout = 2.19

